tested on: 885512-296-R-J2-PDC complex spheroid growth, % test/control; assay: Anticancer human tumor 885512-296-R-J2-PDC patient-derived breast carcinoma cell line growth inhibition [AhR]; conditions: second compound 0.316 µM; first compound 0.1 µM; active means viability on the fitted dose curve at most 10% of control; inactive means the rest;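 further: spheroids exposed to compounds for seven days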
Outcome field: choose from 1 (active), -1 (inactive)

Which outcome did this test record for the molecule Nc1ccn(C2OC(CO)C(O)C2(F)F)c(=O)n1 (stereo not given) + Cc1cncc(-c2nc(NCCc3c[nH]c4ccccc34)c3ncn(C(C)C)c3n2)c1 ?
1

Which outcome did this test record for the molecule CC[C@@]1(O)C(=O)OCc2c1cc1n(c2=O)Cc2cc3c(CN(C)C)c(O)ccc3nc2-1 + Cc1cncc(-c2nc(NCCc3c[nH]c4ccccc34)c3ncn(C(C)C)c3n2)c1 ?
1

Which outcome did this test record for the molecule O=C(c1cc(Cc2n[nH]c(=O)c3ccccc23)ccc1F)N1CCN(C(=O)C2CC2)CC1 + Cc1cncc(-c2nc(NCCc3c[nH]c4ccccc34)c3ncn(C(C)C)c3n2)c1 ?
-1

Which outcome did this test record for the molecule NS(=O)(=O)OCC1CC(n2ccc3c(NC4CCc5ccccc54)ncnc32)CC1O (stereo not given) + Cc1cncc(-c2nc(NCCc3c[nH]c4ccccc34)c3ncn(C(C)C)c3n2)c1 ?
-1

Which outcome did this test record for the molecule CC1COCCN1c1cc(-c2ccnn2C)c2ccnc(-c3ccn[nH]3)c2n1 (stereo not given) + CC(CO)NC(=O)c1cc(-c2ccc(Cl)cc2)nn(-c2cnn(C)c2)c1=O ?
-1

Which outcome did this test record for the molecule NS(=O)(=O)OCC1CC(n2ccc3c(NC4CCc5ccccc54)ncnc32)CC1O (stereo not given) + Cc1ccccc1N=Nc1ccc(NC(=O)c2ccnn2C)c(C)c1 ?
-1

Which outcome did this test record for the molecule Nc1ncn(C2CC(O)C(CO)O2)c(=O)n1 (stereo not given) + CC(CO)NC(=O)c1cc(-c2ccc(Cl)cc2)nn(-c2cnn(C)c2)c1=O ?
-1

Which outcome did this test record for the molecule CC[C@@]1(O)C(=O)OCc2c1cc1n(c2=O)Cc2cc3c(CN(C)C)c(O)ccc3nc2-1 + CC(CO)NC(=O)c1cc(-c2ccc(Cl)cc2)nn(-c2cnn(C)c2)c1=O ?
1

Which outcome did this test record for the molecule Cn1ncnc1C1c2n[nH]c(=O)c3cc(F)cc(c23)NC1c1ccc(F)cc1 (stereo not given) + Cc1ccccc1N=Nc1ccc(NC(=O)c2ccnn2C)c(C)c1 ?
-1

Which outcome did this test record for the molecule Nc1ccccc1NC(=O)c1ccc(CNC(=O)OCc2cccnc2)cc1 + Cc1cncc(-c2nc(NCCc3c[nH]c4ccccc34)c3ncn(C(C)C)c3n2)c1 ?
-1
